system: HeLa; experiment: Cell cycle arrest in human HeLa cells assessed as accumulation at G0/G1 phase at 4 uM after 48 hrs by propidium iodide staining-based flow cytometric analysis (reference value: 62%); assay type: functional
Provide the reported Activity of each item.

The compound listed as `COc1cc2nc(C)n(-c3ccccc3Cn3cc(-c4ccccn4)nn3)c(=O)c2cc1OC` shows Activity equal to 72%

The compound listed as `COc1cc2nc(C)n(-c3ccccc3Cn3cc(-c4ccc(C)cc4)nn3)c(=O)c2cc1OC` shows Activity equal to 72%

The compound listed as `Cc1nc2ccccc2c(=O)n1-c1ccccc1Cn1cc(-c2ccccc2)nn1` shows Activity equal to 76%

The compound listed as O=c1c2ccccc2nc2n1Cc1cc3ccccc3nc1-2 [LUOTONIN A] shows Activity equal to 75%

The compound listed as `Cc1nc2ccccc2c(=O)n1-c1ccccc1Cn1cc(S)nn1` shows Activity equal to 71%

The compound listed as `COc1cc2nc(C)n(-c3ccccc3Cn3cc(S)nn3)c(=O)c2cc1OC` shows Activity equal to 71%

The compound listed as `COc1ccc2cc(-c3cn(Cc4ccccc4-n4c(C)nc5ccccc5c4=O)nn3)ccc2c1` shows Activity equal to 73%

----------
tested on: HeLa; assay: Selectivity index, ratio of IC50 for HEK cells to IC50 for human HeLa cells; format: functional
Provide the reported Ratio IC50 of each item.

The compound listed as `CCCCCCc1cn(Cc2ccccc2-n2c(C)nc3cc(OC)c(OC)cc3c2=O)nn1` shows Ratio IC50 equal to 3.62

The compound listed as `COc1cc2nc(C)n(-c3ccccc3Cn3cc(S)nn3)c(=O)c2cc1OC` shows Ratio IC50 equal to 20.38

The compound listed as `COc1cc2nc(C)n(-c3ccccc3Cn3cc(CCO)nn3)c(=O)c2cc1OC` shows Ratio IC50 equal to 7.75

The compound listed as `COc1ccc2cc(-c3cn(Cc4ccccc4-n4c(C)nc5cc(OC)c(OC)cc5c4=O)nn3)ccc2c1` shows Ratio IC50 equal to 4.65

----------
tested on: HEK293; assay: Selectivity index, ratio of IC50 for HEK cells to IC50 for human MCF7 cells; type: functional
observation-type: Ratio IC50
Write the number on its own, no unit after it.

The molecule listed as `Cc1nc2ccccc2c(=O)n1-c1ccccc1Cn1cc(S)nn1` shows Ratio IC50 equal to 12.61

The molecule listed as `COc1cc2nc(C)n(-c3ccccc3Cn3cc(-c4ccccc4)nn3)c(=O)c2cc1OC` shows Ratio IC50 equal to 6.96

The molecule listed as `Cc1nc2ccccc2c(=O)n1-c1ccccc1Cn1ccnn1` shows Ratio IC50 equal to 4.97

The molecule listed as `COc1ccc(-c2cn(Cc3ccccc3-n3c(C)nc4ccccc4c3=O)nn2)cc1` shows Ratio IC50 equal to 8.05

The molecule listed as `COc1cc2nc(C)n(-c3ccccc3Cn3ccnn3)c(=O)c2cc1OC` shows Ratio IC50 equal to 4.13

The molecule listed as `Cc1nc2ccccc2c(=O)n1-c1ccccc1Cn1cc(-c2ccccc2)nn1` shows Ratio IC50 equal to 32

The molecule listed as `COc1cc2nc(C)n(-c3ccccc3Cn3cc(-c4ccccn4)nn3)c(=O)c2cc1OC` shows Ratio IC50 equal to 13.54

The molecule listed as CCCCCC(O)c1cn(Cc2ccccc2-n2c(C)nc3cc(OC)c(OC)cc3c2=O)nn1 (stereo not given) shows Ratio IC50 equal to 2.68

The molecule listed as `COc1cc2nc(C)n(-c3ccccc3Cn3cc(CCO)nn3)c(=O)c2cc1OC` shows Ratio IC50 equal to 8.85

The molecule listed as `COc1ccc(-c2cn(Cc3ccccc3-n3c(C)nc4cc(OC)c(OC)cc4c3=O)nn2)cc1` shows Ratio IC50 equal to 5.15
